assay remarks: Stability by in vitro constant temperature (37° C.) incubation in mouse plasma, LC-MS/MS
Format: in vitro ADME
conditions: 24 h, read-out: percentage of drug remaining
Peptide text beside a SMILES is read from it.

| molecule | unit symbol | remaining at 24 h, 1 μg/mL |
| --- | --- | --- |
| N=C(N)NCCC[C@@H]1NC(=O)CNC(=O)[C@H](CC(N)=O)NC(=O)[C@H](CCCCN)NC(=O)[C@H](CCC(=O)O)NC1=O [Comparative Example 1, cyclo(NGREK), reference compound] (cyclo(EKNGR)) | % | 39.8 |

----------
assay remarks: Stability by in vitro constant temperature (37° C.) incubation in mouse plasma, LC-MS/MS
Type: in vitro ADME
conditions: 0.5 h, read-out: percentage of drug remaining
Peptide text beside a SMILES is read from it.

| compound | remaining at 0.5 h, 1 μg/mL [%] |
| --- | --- |
| N=C(N)NCCC[C@@H]1NC(=O)CNC(=O)[C@H](CC(N)=O)NC(=O)[C@H](CCCCN)NC(=O)[C@H](CCC(=O)O)NC1=O [Comparative Example 1, cyclo(NGREK), reference compound] (cyclo(EKNGR)) | 94.8 |

----------
assay remarks: Stability by in vitro constant temperature (37° C.) incubation in mouse plasma, LC-MS/MS
Type: in vitro ADME
conditions: 4 h, read-out: percentage of drug remaining
Peptide text beside a SMILES is read from it.
observable: remaining at 4 h, 1 μg/mL (%)

| compound | observable | observed |
| --- | --- | --- |
| N=C(N)NCCC[C@@H]1NC(=O)CNC(=O)[C@H](CC(N)=O)NC(=O)[C@H](CCCCN)NC(=O)[C@H](CCC(=O)O)NC1=O [Comparative Example 1, cyclo(NGREK), reference compound] (cyclo(EKNGR)) | remaining at 4 h, 1 μg/mL | 80.2 |

----------
assay remarks: Stability by in vitro constant temperature (37° C.) incubation in mouse plasma, LC-MS/MS
Format: in vitro ADME
conditions: 48 h, read-out: percentage of drug remaining
Peptide text beside a SMILES is read from it.
observable: remaining at 48 h, 1 μg/mL

| compound | observed |
| --- | --- |
| N=C(N)NCCC[C@@H]1NC(=O)CNC(=O)[C@H](CC(N)=O)NC(=O)[C@H](CCCCN)NC(=O)[C@H](CCC(=O)O)NC1=O [Comparative Example 1, cyclo(NGREK), reference compound] (cyclo(EKNGR)) | 12.4% |

----------
assay remarks: Stability by in vitro constant temperature (37° C.) incubation in PBS, LC-MS/MS
Format: physicochemical
conditions: 1 h, read-out: percentage of drug remaining
Peptide text beside a SMILES is read from it.
observable: remaining at 1 h, 1 μg/mL (%)

| molecule | observable | observed |
| --- | --- | --- |
| N=C(N)NCCC[C@@H]1NC(=O)CNC(=O)[C@H](CC(N)=O)NC(=O)[C@H](CCCCN)NC(=O)[C@H](CCC(=O)O)NC1=O [Comparative Example 1, cyclo(NGREK), reference compound] (cyclo(EKNGR)) | remaining at 1 h, 1 μg/mL | 96.6 |

----------
assay remarks: Stability by in vitro constant temperature (37° C.) incubation in mouse plasma, LC-MS/MS
Type: in vitro ADME
conditions: 1 h, read-out: percentage of drug remaining
Peptide text beside a SMILES is read from it.

| compound | remaining at 1 h, 1 μg/mL (%) |
| --- | --- |
| N=C(N)NCCC[C@@H]1NC(=O)CNC(=O)[C@H](CC(N)=O)NC(=O)[C@H](CCCCN)NC(=O)[C@H](CCC(=O)O)NC1=O [Comparative Example 1, cyclo(NGREK), reference compound] (cyclo(EKNGR)) | 89.4 |

----------
assay remarks: Stability by in vitro constant temperature (37° C.) incubation in PBS, LC-MS/MS
Assay type: physicochemical
conditions: 24 h, read-out: percentage of drug remaining
Peptide text beside a SMILES is read from it.
observable: remaining at 24 h, 1 μg/mL

| molecule | observed |
| --- | --- |
| N=C(N)NCCC[C@@H]1NC(=O)CNC(=O)[C@H](CC(N)=O)NC(=O)[C@H](CCCCN)NC(=O)[C@H](CCC(=O)O)NC1=O [Comparative Example 1, cyclo(NGREK), reference compound] (cyclo(EKNGR)) | 73.4% |

----------
assay remarks: Stability by in vitro constant temperature (37° C.) incubation in PBS, LC-MS/MS
Assay type: physicochemical
conditions: 4 h, read-out: percentage of drug remaining
Peptide text beside a SMILES is read from it.

| compound | remaining at 4 h, 1 μg/mL [%] |
| --- | --- |
| N=C(N)NCCC[C@@H]1NC(=O)CNC(=O)[C@H](CC(N)=O)NC(=O)[C@H](CCCCN)NC(=O)[C@H](CCC(=O)O)NC1=O [Comparative Example 1, cyclo(NGREK), reference compound] (cyclo(EKNGR)) | 91.4 |
